# target_desc: Myeloperoxidase (Homo sapiens, UniProt P05164)
# Sequence (P05164 whole entry): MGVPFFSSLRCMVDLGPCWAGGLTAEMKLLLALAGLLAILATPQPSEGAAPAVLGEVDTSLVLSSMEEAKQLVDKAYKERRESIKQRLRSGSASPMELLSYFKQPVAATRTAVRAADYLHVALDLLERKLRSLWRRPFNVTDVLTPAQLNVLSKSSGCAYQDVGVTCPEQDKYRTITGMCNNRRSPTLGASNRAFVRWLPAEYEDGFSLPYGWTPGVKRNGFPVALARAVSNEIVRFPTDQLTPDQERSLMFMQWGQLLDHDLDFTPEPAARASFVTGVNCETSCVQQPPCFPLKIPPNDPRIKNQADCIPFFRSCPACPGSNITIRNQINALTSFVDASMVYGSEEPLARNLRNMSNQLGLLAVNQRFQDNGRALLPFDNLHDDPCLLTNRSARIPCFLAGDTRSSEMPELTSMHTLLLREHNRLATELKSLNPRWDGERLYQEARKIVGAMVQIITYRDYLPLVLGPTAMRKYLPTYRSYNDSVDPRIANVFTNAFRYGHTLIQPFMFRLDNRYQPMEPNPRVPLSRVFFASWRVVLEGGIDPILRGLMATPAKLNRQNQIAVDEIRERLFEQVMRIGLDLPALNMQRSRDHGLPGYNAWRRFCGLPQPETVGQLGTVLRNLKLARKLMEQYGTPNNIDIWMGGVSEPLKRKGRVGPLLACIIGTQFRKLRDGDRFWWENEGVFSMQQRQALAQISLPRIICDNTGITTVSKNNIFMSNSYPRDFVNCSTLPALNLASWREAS
# experiment_summary: Inhibition of MPO (unknown origin) measured after 15 mins in presence of H2O2 by chemiluminescence assay
readout_label: IC50
Quote the value and follow it with the unit of measurement.

Some solved cases for reference:
# molecule, IC50
measured = [
    ("CN[C@H](C)c1cc(Cl)ccc1Cn1c(=S)[nH]c(=O)c2[nH]ccc21 (racemic)", "12.7 nM"),
    ("CC(C)NCc1ccccc1Cn1c(=S)[nH]c(=O)c2[nH]ccc21", "30.9 nM"),
]

--- query ---
# input Which value of IC50 has been reported for "CC(C)NCc1ccccc1Cn1c(=S)[nH]c(=O)c2[nH]cnc21" in the records?
# output 38.6 nM
